TARGET ENTITY: HLA-B*1801 (human)
ASSAY SUMMARY: competitive inhibition of labeled reference peptide binding to purified HLA
CONDITION INFO: remark: other sources report otherwise
MEASURED QUANTITY: IC50 (µM)
Express the result in µM but write the number alone.

Need IC50 of RELNEALEL [… (p53, position 342, 9-mer)] , thanks.
3

Entry source: patent EP1903056A2
